Hello, the source for this data is patent US20260193293A1, in case you need it.

Examples of binders with documented pKi follow.
System under test: Sushi domains (SD1/2) protein of the GABAB1a (GB1a) subunit, recombinant
Sequence (Q9Z0U4 29-158): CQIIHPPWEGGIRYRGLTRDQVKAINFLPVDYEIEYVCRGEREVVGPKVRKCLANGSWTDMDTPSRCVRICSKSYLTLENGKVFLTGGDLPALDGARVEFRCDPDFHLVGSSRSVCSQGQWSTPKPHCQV
Protocol text: FP competition
pKi: −log10 of the molar value. Non-standard residues stand in square brackets, D forms with d. NMeT = CN[C@H](C(=O)O)[C@@H](C)O

Binder	pKi
Ac-EDDSDVWWGGAD[NMeT]D-NH2 (SMILES CC(=O)N[C@@H](CCC(=O)O)C(=O)N[C@@H](CC(=O)O)C(=O)N[C@@H](CC(=O)O)C(=O)N[C@@H](CO)C(=O)N[C@@H](CC(=O)O)C(=O)N[C@H](C(=O)N[C@@H](Cc1c[nH]c2ccccc12)C(=O)N[C@@H](Cc1c[nH]c2ccccc12)C(=O)NCC(=O)NCC(=O)N[C@@H](C)C(=O)N[C@@H](CC(=O)O)C(=O)N(C)[C@H](C(=O)N[C@@H](CC(=O)O)C(N)=O)[C@@H](C)O)C(C)C) […(N-Me-T)D]	6.30
Ac-EADSDVWWGGADTD-NH2	5.91
Ac-EDDSDVWWGG[dA]DTD-NH2 […aDTD]	6.12
Ac-ATEFIAWGPTGDED-NH2	7.28
